# System: rabbit platelets
# assay text: ADP induced platelet aggregation in vitro, turbidimetric method (Born and Cross, modified)
# Format: cell-based
# reported conditions: 1 minute and 30 seconds after ADP; 200 γ; percent of ADP controls; rabbit PRP
Can you tell me percent inhibition of platelet aggregation for the items I'm about to list?
Field format: number, assumed %, no unit text.

Can you share its percent inhibition of platelet aggregation? I mean this compound: "CO[C@]12C[C@@H](CNc3cc(C)cc(C)n3)CN(C)[C@@H]1Cc1cn(C)c3cccc2c13"
89

Also "CO[C@]12C[C@@H](CSc3ccc([N+](=O)[O-])cn3)CN(C)[C@@H]1Cc1cn(C)c3cccc2c13" ?
100

Also "CO[C@]12C[C@@H](CNc3ccccn3)CN(C)[C@@H]1Cc1cn(C)c3cccc2c13" ?
100

Values were extracted from patent US4089862A.
